- System: Mycobacterium tuberculosis
- procedure.summary: In vitro effective concentration of the compound causing 90%reduction in residualmycobacterium tuberculosis growth after 7 days compared to untreated control
- Format: functional
- measurement.context: 168 h
measurement.label: EC90 (µg/mL)
Answer with a number only, understood to be in µg/mL.

Answered cases to consult:
CCc1c(C(=O)OC)[n+]([O-])c2cc(Cl)ccc2[n+]1[O-] : 0.46
COC(=O)c1c(C)[n+]([O-])c2cc(C)c(C)cc2[n+]1[O-] : 1.64
COC(=O)c1c(Cc2ccccc2)[n+]([O-])c2ccccc2[n+]1[O-] : 0.15
CCc1c(C(=O)OC)[n+]([O-])c2ccccc2[n+]1[O-] : 0.88
COC(=O)c1c(C)[n+]([O-])c2ccc(C)cc2[n+]1[O-] : 1.94
COC(=O)c1c(Cc2ccccc2)[n+]([O-])c2ccc(Cl)cc2[n+]1[O-] : 0.0005
COC(=O)c1c(Cc2ccccc2)[n+]([O-])c2ccc(C)cc2[n+]1[O-] : 1.13

[in] Specify reported EC90 for the molecule shown: "CCc1c(C(=O)OC)[n+]([O-])c2cc(Cl)c(Cl)cc2[n+]1[O-]"
[out] 0.63

---

The entries below come with measured SI values attached.
- procedure.summary: Selectivity index (ratio of IC50 and MIC) value was determined
- measurement.context: cercopithecidae

Answered cases to consult:
CCOC(=O)COC(=O)c1c(CC)[n+]([O-])c2ccc(Cl)cc2[n+]1[O-] : 1.2
COC(=O)c1c(C)[n+]([O-])c2cc(Cl)c(Cl)cc2[n+]1[O-] : 8.4
CCc1c(C(=O)OC)[n+]([O-])c2cc(C)ccc2[n+]1[O-] : > 40.1
COC(=O)c1c(C)[n+]([O-])c2ccccc2[n+]1[O-] : > 6.41
COC(=O)c1c(Cc2ccccc2)[n+]([O-])c2ccc(OC)cc2[n+]1[O-] : > 80.1
CCc1c(C(=O)OC)[n+]([O-])c2cc(Cl)ccc2[n+]1[O-] : > 50
COC(=O)c1c(C)[n+]([O-])c2ccc(OC)cc2[n+]1[O-] : 33.7
COC(=O)c1c(C)[n+]([O-])c2cc(C)c(C)cc2[n+]1[O-] : > 20
COC(=O)c1c(C)[n+]([O-])c2cc(F)c(F)cc2[n+]1[O-] : 3.8
CCOC(=O)COC(=O)c1c(CC)[n+]([O-])c2cc(Cl)c(Cl)cc2[n+]1[O-] : 6.1

[in] Specify reported SI for the compound shown: "CCc1c(C(=O)OC)[n+]([O-])c2cc(OC)ccc2[n+]1[O-]"
[out] 6.4

[in] Specify reported SI for the compound shown: "CCc1c(C(=O)OC)[n+]([O-])c2cc(Cl)c(Cl)cc2[n+]1[O-]"
[out] > 20

[in] Specify reported SI for the compound shown: "COC(=O)c1c(Cc2ccccc2)[n+]([O-])c2ccccc2[n+]1[O-]"
[out] 470

[in] Specify reported SI for the compound shown: "COC(=O)c1c(Cc2ccccc2)[n+]([O-])c2ccc(Cl)cc2[n+]1[O-]"
[out] 76

[in] Specify reported SI for the compound shown: "C=CCc1c(C(=O)OC)[n+]([O-])c2cc(Cl)c(Cl)cc2[n+]1[O-]"
[out] 0.93

[in] Specify reported SI for the compound shown: "COC(=O)c1c(Cc2ccccc2)[n+]([O-])c2ccc(C)cc2[n+]1[O-]"
[out] 144

[in] Specify reported SI for the compound shown: "CCc1c(C(=O)OC)[n+]([O-])c2ccccc2[n+]1[O-]"
[out] 30.1

[in] Specify reported SI for the compound shown: "CCc1c(C(=O)OC)[n+]([O-])c2cc(F)c(F)cc2[n+]1[O-]"
[out] 0.77

---

- System: Mycobacterium tuberculosis
- procedure.summary: In vitro actual minimum inhibitory concentration value of the compound was determined against Mycobacterium tuberculosis
- Format: functional
The entries below come with measured MIC values attached.

COC(=O)c1c(Cc2ccccc2)[n+]([O-])c2cc(F)c(F)cc2[n+]1[O-] : > 6.25 µg/mL
COC(=O)c1c(C(C)(C)C)[n+]([O-])c2ccc(Cl)cc2[n+]1[O-] : > 6.25 µg/mL

Consider now this further molecule.
[in] Specify reported MIC for the molecule shown: "C=CCc1c(C(=O)OC)[n+]([O-])c2cc(C)c(C)cc2[n+]1[O-]"
[out] > 6.25 µg/mL

---

- procedure.summary: Selectivity index (ratio of IC50 and MIC) value was determined
- measurement.context: cercopithecidae
measurement.label: SI

Answered cases to consult:
COC(=O)c1c(C)[n+]([O-])c2ccc(C)cc2[n+]1[O-] : > 40.1
COCCc1c(C(=O)OC)[n+]([O-])c2cc(Cl)c(Cl)cc2[n+]1[O-] : 11.5

Consider now this further compound.
[in] Specify reported SI for the compound shown: "CCc1c(C(=O)OC)[n+]([O-])c2cc(C)c(C)cc2[n+]1[O-]"
[out] > 10

Recorded values, source ChEMBL document CHEMBL1144409.
